Numbers sourced from paper PMC6212833.

- System: Balamuthia mandrillaris (ATCC PRA-291) trophozoites, axenic culture
- assay.explanation: primary screen, percent inhibition; higher = more effect of the substance;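 also: 0% = vehicle wells and 100% = lysate wells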
- condition.context: 20 µM
In all, about 2,000 compounds went through this assay and about 15 (0.8%) showed an effect of 50% or more. The sample as a whole holds a higher share of strong results than the screen did.
Binary classification by % Inhibition, with 20% as an inclusive lower bound for Yes; all other cases are No.

Form field: % Inhibition at least 20%? Entry: CC1(C)C(C=C(Cl)Cl)C1C(=O)OCc1cccc(Oc2ccccc2)c1 (centres unmarked)
No

Form field: % Inhibition at least 20%? Entry: COc1ccc2[nH]c(S(=O)Cc3ncc(C)c(OC)c3C)nc2c1 (centres unmarked)
Yes

Form field: % Inhibition at least 20%? Entry: C/C=C(/C)C(=O)O[C@@H]1[C@H](OC(C)=O)[C@@]2(CO)C(CC1(C)C)C1=CCC3[C@@]4(C)CC[C@H](O[C@@H]5O[C@H](C(=O)O)[C@@H](O[C@@H]6O[C@H](CO)[C@@H](O)[C@H](O)[C@H]6O)[C@H](O)[C@H]5O[C@@H]5O[C@H](CO)[C@@H](O)[C@H](O)[C@H]5O)[C@](C)(CO)C4CC[C@@]3(C)[C@]1(C)C[C@H]2O (some centres unmarked)
No

Form field: % Inhibition at least 20%? Entry: C[C@@H]1O[C@@H](O[C@H]2C[C@@H](O)[C@]3(CO)[C@H]4[C@H](O)C[C@]5(C)[C@@H](C6=CC(=O)OC6)CC[C@]5(O)[C@@H]4CC[C@]3(O)C2)[C@H](O)[C@H](O)[C@H]1O
No

Form field: % Inhibition at least 20%? Entry: Nc1c2c(nc3ccccc13)CCCC2
Yes

Form field: % Inhibition at least 20%? Entry: COc1ccc(OC)c(C(O)C(C)N)c1 (centres unmarked)
No

Form field: % Inhibition at least 20%? Entry: C[C@]12C=CC(=O)C=C1CCC1C2[C@@H](O)C[C@@]2(C)C1CC[C@]2(O)C(=O)COP(=O)(O)O (some centres unmarked)
No

Form field: % Inhibition at least 20%? Entry: CC(=O)OCC(COC(C)=O)OC(C)=O
No
